Tested on: Enterococcus faecalis (EFA)
PROTOCOL_TEXT: MIC, two-fold agar dilution (CLSI), clinical isolates
Type: cell-based
EXPERIMENTAL_CONDITIONS: clinical isolate EFA 15-6
READOUT: Anti-bacterial activity (MIC), strain EFA 15-6

Look over these answered cases.
[[record]]
smiles_notation = "O=C(C[C@@H](CC1CCCC1)C(=O)N1CC2(CC2)C[C@H]1C(=O)Nc1ccc(F)cn1)NO"
result = "32 µg/mL"

[[record]]
smiles_notation = "O=C(C[C@@H](CC1CCCC1)C(=O)N1CC2(CC2)C[C@H]1C(=O)Nc1ccc(N2CCOCC2)cc1)NO"
result = "> 32 µg/mL"


# input for lookup
Requested field: Anti-bacterial activity (MIC), strain EFA 15-6. Item: CCCC[C@H](CC(=O)NO)C(=O)N1CC2(CC2)C[C@H]1C(=O)Nc1ncc(C)s1 > 32 µg/mL
